Test system: OVCAR-3 ovarian
Assay: NCI-60 one-dose screen, 48 h (100 = growth as untreated, 0 = no growth, -100 = all killed)
Settings: 10 µM unless noted
Compounds without any hit were thinned out: in the full panel of roughly 83,000, 20% have a hit.
Measured property: growth (%)
Give your result in % as a bare value.

Examples from the recorded data:
Compound | Measurement
C#CCOc1ccc(C(Nc2ccc(Cl)cc2)c2nnnn2C2CCCCC2)cc1 (stereo not drawn) | 101
O=S(=O)(Nc1cc(Cl)cc(Cl)c1)c1ccc(-c2cnc(C3CC3)o2)cc1 | 17.2
O=C(Nc1ccc(F)cc1)c1cc(-c2ccc(F)cc2F)ccc1O | 6.06

Entry CCN(CC)CCCC(C)NCC(=O)NC(c1ccc2c(c1)OCO2)c1cc(Cl)c2cccnc2c1O (stereo not drawn) has what growth? 10.8

Entry `NC(=O)c1c(NC(=O)c2cccc(OC(F)(F)F)c2)sc2c1CCC(=O)C2` has what growth? 67.2

Entry `C=C(C)[C@@H]1CC[C@]2(COS(C)(=O)=O)CC[C@]3(C)[C@H](CC[C@@H]4[C@@]5(C)CCCNC(C)(C)[C@@H]5CC[C@]43C)[C@@H]12` has what growth? 92.2

Entry `COc1ccc2c(c1)c(-c1nnc(N)nc1-c1cn(C)c3ccccc13)cn2C` has what growth? 96.8

Entry `O=C(CCCCCCN1CC(=O)N2[C@@H](c3cccc(Cl)c3)c3[nH]c4ccccc4c3C[C@H]2C1=O)NO` has what growth? 36.3

Entry `Cc1cc(O)c2c(c1)C(=O)C(c1c(C)cc3c(c1O)C(=O)C=CC3=O)=CC2=O` has what growth? 23.4

###

Tested on: HCC-2998 colon
Assay: NCI-60 one-dose screen, 48 h (100 = growth as untreated, 0 = no growth, -100 = all killed)
Conditions: 10 µM unless noted
Procedure: Growth inhibition of the HCC-2998 human tumor cell line is measured as a screen for anti-cancer activity. Cells are grown in 96 well plates and exposed to the test compound for 48 hours. Compounds are tested at a single concentration, which is 10^-5 M for most compounds. The reported endpoint is percent growth (GI% or GIPRCNT), where numbers from 0 - 100% represent growth inhibition, and numbers from -100% - 0 represent cell death. For example, a value of 40 represents 60% growth inhibition. […]
The panel holds about 83,000 compounds, 20% with a hit somewhere; the sample as a whole holds those more often.
# growth per record follows
Give your result in % as a bare value.

Examples from the recorded data:
Substance smiles | growth / %
O=C(/C=C/Nc1ccc(S(=O)(=O)O)cc1)c1ccc(F)cc1 | 106
O=C1[C@H]2Cc3c([nH]c4ccccc34)[C@@H](c3c(Cl)cccc3Cl)N2C(=O)CN1C1CCN(Cc2ccccc2)CC1 | 102
Cc1nc(-c2cc3ccccc3c(N3CCN(C)CC3)n2)cs1 | 95.3
O=C1c2c(c3c4cc(O)ccc4oc3c3[nH]c4ccccc4c23)C(=O)N1O | 34.6
COc1cc(CNC(=O)Cc2ccccc2[N+](=O)[O-])ccc1OCC(=O)NO | 108
O=C(CSc1nnc(-c2ccc(Cl)cc2)n1-c1ccccc1)Nc1ccc(F)cc1 | 100
O=C1c2c(O)cc(O)cc2O[C@@H](c2ccc(O)cc2)[C@@H]1c1c(O)cc(O)c2c(=O)cc(-c3ccc(O)c(O)c3)oc12 | 111
CN(C)c1ccc(/C=N/Nc2nc(N/N=C/c3ccc(N(C)C)cc3)nc(N3CCOCC3)n2)cc1 | 103
CNC(=O)c1cc(Oc2ccc3nc(NC(=O)c4cc(C)cc(C)c4)sc3c2)ccn1 | 103
O=S(=O)(Nc1cc(Cl)cc(Cl)c1)c1ccc(-c2cnc(C3CC3)o2)cc1 | 56.7

Please examine the following record next.
Entry `COc1ccc(/C=C/C(=O)c2nnn(-c3ccc(Br)cc3)c2C)cc1OC` has what growth? 83.7

Reference source: PubChem BioAssay (NCI)
